Tested on: TAG
Experiment: TAG lipid buildup inhibition with viability readout – cell-based, panel, Nile Red and DAPI fluorescence, H9c2, dose response (AID 651630);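 note: cells exposed to compound overnight before fixation and staining; hits lower the Nile Red lipid signal and are scored as TAG inhibitors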
Conditions: H9c2 cells, Nile Red TAG fluorescence, oleic acid, mean of runs
The source made the active and inactive calls.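 Rule for the calls: active = lipid-stain IC50 at or below a set limit, with nuclear-stain toxicity IC50 at least five times higher; inactive = the rest.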
Entries annotated with measured IC50

Observe how each entry below is paired with its result.
>>> measured("Cn1c(N)c(C(=O)COC(=O)c2ccc([N+](=O)[O-])o2)c(=O)n(C)c1=O")
"10.1 µM"
>>> measured("COc1cc(C#Cc2c(-c3cncn3C)n(C)c3ccc(-c4ccc5cc[nH]c5c4)cc23)cc(OC)c1")
"11.7 µM"
>>> measured("Cc1cc(N2CCN(Cc3cn(C)nc3-c3ccccc3F)CC2)cc(C)n1")
"13.1 µM"
>>> measured("CN(C)CCCN1c2ccccc2Sc2ccccc21")
"> 25 µM (inactive)"
>>> measured("Cc1ccc(S(=O)(=O)NC2=C(N3CCN(c4ccccc4F)CC3)C(=O)c3ccccc3C2=O)cc1")
"8.82 µM"

Query: # IC50 lookup, item Cc1ccc(Sc2cc(N3CCOCC3)nc(-c3ccccc3)n2)cc1
Result: > 25 µM (inactive)

Query: How about this compound: COc1cc(OC)c2c(-c3ccccc3)cc(=O)oc2c1C(CCN1CCN(c2ccccc2)CC1)c1ccc(N(C)C)cc1 (stereo unspecified)
Result: 6.35 µM

Query: How about this compound: C=CC[C@@H](CC(=O)N(CCO)Cc1ccccc1)C(=O)N[C@@H](COC(=O)[C@@H](CC=C)Cc1ccc(F)cc1)Cc1ccccc1
Result: 9.33 µM

Query: How about this compound: COc1cc2c3c(cccc3c1)C(=O)N(CCN1CCCC1)C2=O
Result: 7.94 µM

Query: How about this compound: COc1cc([C@@H]2c3cc4c(cc3[C@H](O)[C@H]3COC(=O)[C@H]23)OCO4)cc(OC)c1OC
Result: > 25 µM (inactive)

Query: How about this compound: C[C@@]12C(=O)Nc3ccc(Br)cc3C(=O)N1[C@H]1c3cc(Cl)ccc3OC[C@@H]1[C@@H]2c1ccccc1
Result: 14.6 µM

----------
Test system: TAG
Experiment: TAG lipid buildup inhibition with viability readout – cell-based, panel, Nile Red and DAPI fluorescence, H9c2, dose response (AID 651630);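 note: cells exposed to compound overnight before fixation and staining; hits lower the Nile Red lipid signal and are scored as TAG inhibitors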
Details: H9c2 cells, Nile Red TAG fluorescence, oleic acid, mean of runs
Active and inactive are the calls of the source.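 The calls were made as follows: active = lipid-stain IC50 at or below a set limit, with nuclear-stain toxicity IC50 at least five times higher; inactive = the rest.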
Form entry, call: pick from active, inactive

Would you please look over these solved cases?
>>> classification("COc1cc2c(cc1[N+](=O)[O-])-c1ccc([N+](=O)[O-])cc1C2=NNC(N)=S")
"inactive"
>>> classification("COc1ccc(OC)c(C2CC(c3ccccc3)=NN2C(=S)Nc2ccccc2)c1 (stereo not given)")
"inactive"
>>> classification("C#CCN(C[C@H]1[C@H](OC(=O)NCCCCCC)[C@H](OC(=O)NCCCCCC)C[C@@H](C(=O)OC)[C@H]1C(=O)OC)S(=O)(=O)c1ccc(C)cc1")
"active"
>>> classification("COc1cc2c(c(OC)c1OC)-c1ccc(SC)c(=O)cc1C(NC=O)CC2 (stereo not given)")
"inactive"
>>> classification("COc1cc(/C=C2/NC(=O)N(Cc3ccccc3F)C2=O)ccc1O")
"inactive"

Query: // outcome(item) with item = CN(C)CCCn1c(=O)n(CCc2ccccc2)c(=O)c2c3c(sc21)CCCCC3
Result: inactive

Query: How about this molecule: CC(C)C[C@H]1CNC(=S)N1CC1CCCN1C[C@H](CC(C)C)N1C[C@H](CC(C)C)N(CC2CCCCCC2)C1=S (stereo not given in full)
Result: inactive

Query: How about this molecule: O=c1cc(N2CCN(c3cccc(Cl)c3)CC2)[nH]c(=O)n1C1CCCCC1
Result: active

Query: How about this molecule: CCOC(=O)c1c(C)[nH]c(C(=O)OCC(=O)NCCc2ccc(OCC)c(OCC)c2)c1C
Result: inactive
